Assay: P. aeruginosa biofilm formation inhibitors, primary screen, strain PAO1, LB-PBS medium, absorbance 600 nm (AID 1176); note: test concentration not given here
Settings: P. aeruginosa PAO1 growth/biofilm, A600, 12 h; higher = more signal
Given measured z-score, output true (1) if it is greater than or equal to 0.3 and false (0) if not.

INSERT INTO measurements (molecule, cat) VALUES
  ('COc1ccc(CCNC(=O)[C@@]2(Sc3ccc(C)cc3)CC(=O)N(C3Cc4ccccc4C3)[C@@H]2c2ccc(CO)cc2)cc1', 'true (1)'),
  ('CCOC(=O)C1=CC[C@@H](c2ccc(OCc3ccccc3)c(OC)c2)N(S(=O)(=O)c2ccc(C)cc2)[C@H]1c1ccc(SC)cc1', 'true (1)'),
  ('C#CCN([C@@H](Cc1ccc(O)cc1)C(=O)OC)[C@@H](/C=C/C1CC1)[C@H](O)Cc1ccccc1', 'false (0)'),
  ('COCCOC(=O)N1C(=O)[C@@]2(c3cc(C#CC4=CCCCC4)ccc31)[C@H](C(N)=O)[C@H]1C(=O)O[C@H](c3ccccc3)[C@H](c3ccccc3)N1[C@@H]2c1ccccc1OCCO', 'true (1)'),
  ('COc1ccccc1CN1C(=O)c2ccccc2[C@](Cc2ccccc2I)(C(=O)NCC(F)(F)F)[C@@H]1c1ccc(CO)cc1', 'true (1)'),
  ('N#Cc1ccc(NN2C(C(O)c3ccc(F)cc3)C=CC3C(=O)N(c4ccccc4)C(=O)C32)cc1 (stereo unspecified)', 'true (1)'),
  ('COC(=O)[C@@]1(Cc2ccccc2)[C@H]2c3cc(C(=O)N(C)C)n(Cc4c(CO)[nH]cc(C)c4=O)c3C[C@H]2CN1C(=O)c1ccccc1', 'true (1)'),
  ('O=C1O[C@H](c2ccccc2)[C@H](c2ccccc2)N2[C@H]1[C@@H](C(=O)Nc1nc3ccccc3s1)[C@]1(C(=O)Nc3ccccc31)[C@H]2c1ccc(OCCO)cc1', 'true (1)'),
  ('COCCCNC(=O)[C@@]1(Cc2ccccc2CN=[N+]=[N-])N=C(c2ccc(OCCCO)cc2)O[C@H]1c1ccccc1', 'false (0)'),
  ('COCCOC(=O)N1C(=O)[C@@]2(c3ccccc31)[C@H](C(=O)N1CCN(c3ncccn3)CC1)[C@H]1C(=O)O[C@H](c3ccccc3)[C@H](c3ccccc3)N1[C@@H]2c1ccc(O)cc1', 'true (1)'),
  ('COCCOC(=O)N1C(=O)[C@@]2(c3cc(C#Cc4ccc(OC)cc4)ccc31)[C@H](c1ccccc1OCCO)N1[C@H](c3ccccc3)[C@H](c3ccccc3)OC(=O)[C@H]1[C@@H]2C(=O)N1CCCCCCC1', 'true (1)'),
  ('C=CCNC(=O)[C@H]1[C@@H]2C(=O)O[C@@H](c3ccccc3)[C@@H](c3ccccc3)N2[C@@H](c2ccc(O)cc2)[C@]12C(=O)Nc1ccc(C#CC3(O)CCCCCC3)cc12', 'true (1)'),
  ('COc1cc2c(cc1OC)CN(C(=O)[C@@H]1[C@H]3C(=O)O[C@H](c4ccccc4)[C@H](c4ccccc4)N3[C@H](c3ccc(OCCO)cc3)[C@@]13C(=O)Nc1ccccc13)CC2', 'true (1)'),
  ('Cc1ccc(S[C@]2(C(=O)NCC(F)(F)F)CC(=O)N(Cc3ccccc3)[C@@H]2c2ccc(CO)cc2I)cc1', 'true (1)'),
  ('CC(=O)c1ccc(C(O)C2C=CC3C(=O)N(c4ccccc4)C(=O)C3N2Nc2ccc(C#N)cc2)cc1 (stereo unspecified)', 'true (1)'),
  ('CO[C@]12C=C(Br)[C@@H](C[C@@H]1c1cccc(C)c1)[C@@]1(CO1)C2=O', 'false (0)'),
  ('Cc1ccc(S[C@]2(C(=O)O)CC(=O)N(Cc3cc(C(F)(F)F)cc(C(F)(F)F)c3)[C@@H]2c2ccc(CO)cc2)cc1', 'true (1)'),
  ('CC(C)N1C(=O)c2ccccc2[C@@H](C(=O)NC2CC2)[C@@H]1c1ccc(CO)cc1', 'false (0)'),
  ('CC1=C[C@@]2(CO)C(=O)[C@]3(CO3)[C@@H]1[C@H]1[C@]2(C)C=C(CO)C(=O)[C@]12CO2', 'false (0)'),
  ('O=C1C=C(c2ccccc2)C(=O)c2ccc([C@H]3Oc4ccccc4S(=O)(=O)N4CCC[C@@H]34)cc21', 'true (1)'),
  ('COc1ccc([Si](C)(C)[C@H]2[C@H](CC(=O)N(CCO)Cc3ccccc3)O[C@@]3(C(=O)N(Cc4cccc(N5CCOC5=O)c4)c4ccccc43)[C@@H]2C)cc1', 'true (1)'),
  ('COCCOC(=O)N1C(=O)[C@@]2(c3cc(C#CC4=CCCCC4)ccc31)[C@H](c1ccccc1OCCO)N1[C@H](c3ccccc3)[C@H](c3ccccc3)OC(=O)[C@H]1[C@@H]2C(=O)Nc1nc2ccccc2s1', 'true (1)'),
  ('COc1ccc([Si](C)(C)[C@@H]2[C@@H](CC(=O)N(CCO)Cc3ccccc3)O[C@]3(C(=O)N(c4ccccc4)c4ccccc43)[C@H]2C)cc1', 'true (1)'),
  ('CN(C)CCCCNC(=O)[C@@H]1C[C@@H]2C(=O)N[C@@H](Cc3ccccc3)C(=O)N2[C@@H]1c1cccc(OCCO)c1', 'false (0)'),
  ('CC(C)(C)N1CC=CC23O[C@@H]4C=CCCOC(=O)C4[C@H]2C(=O)N(CCO)[C@@H]3C1=O (stereo partly specified)', 'true (1)'),
  ('CCOC(=O)[C@H]1[C@@H]2C(=O)N3CCC[C@H]3[C@H](O[Si](C(C)C)(C(C)C)C(C)C)[C@H]2C=C2CCN(S(=O)(=O)c3ccc(C)cc3)C[C@H]21', 'true (1)');
